Please respond with reported pest or weed control at 62.5 g/ha for every item in the list.
System: giant foxtail (Setaria faberi)
Assay: Test G Pre-Emergence Protocol
Type: in vivo
Conditions: Setaria faberi, pre-emergence, 312 h, 62.5 g ai/ha, evaluated after 13 days, 100=total damage to plant, 0=no damage to plant, read-out: Foxtail, Giant damage rating
Source text: Seeds of corn (Zea mays), giant foxtail (Setaria faberi), barnyardgrass (Echinochloa crus-galli), ivy-leaved morning glory (Ipomoea hederacea), redroot pigweed (Amaranthus retroflexus) and velvetleaf (Abutilon theophrasti) were sown in standard soil in pots. […]
Answers are plain numbers, in %.

{"columns": ["COMPOUND", "QUANTITY UNIT", "MEASURED RESULT"],
 "data": [
  ["COc1cc(C2CN(C)C(=O)C2C(=O)Nc2cccc(F)c2F)cc(OC)c1F (stereo not drawn)", "%", 70]
]}

I have 2 compounds here; please give me pest or weed control at 62.5 g/ha for each one.
1. COc1cc(C2CN(C)C(=O)C2C(=O)Nc2cccc(F)c2F)cc(C)c1C (stereo not drawn)
2. Cc1c(F)cccc1NC(=O)[C@@H]1C(=O)N(C)C[C@H]1c1cccc(OCC2CC2)c1 (racemic)

70
70

====

Field: pest or weed control at 500 g/ha. Provide a value for each of the compounds that follow.
test system: giant foxtail (Setaria faberii); test: Test A preemergence; assay type: in vivo; details: Setaria faberi, pre-emergence, 240 h, 500 g ai/ha, Preemergence, visual injury vs untreated controls after approximately 10 d; read-out: Foxtail, Giant plant response rating (0 to 100 scale where 0 is no effect and 100 is complete control)
One number for each entry, in %.

{"columns": ["COMPOUND STRING", "pest or weed control at 500 g/ha, %"],
 "data": [
  ["CN1C[C@H](c2cc(F)c(F)c(F)c2)[C@@H](C(=O)Nc2ccccc2F)C1=O", 100],
  ["CS(=O)(=O)c1ccccc1NC(=O)[C@H]1C(=O)NC[C@@H]1c1ccc(OC(F)F)cc1", 90],
  ["CN1C[C@H](c2cc(F)c(C(F)(F)F)c(F)c2)[C@@H](C(=O)Nc2ccccc2S(C)(=O)=O)C1=O", 90],
  ["CSc1ccccc1NC(=O)[C@H]1C(=O)N(C)C[C@@H]1c1cc(F)c(F)c(F)c1", 90]
]}

Would you mind giving pest or weed control at 500 g/ha for every compound in the list below?
1. CSc1ccccc1NC(=O)[C@H]1C(=O)NC[C@@H]1c1cccc2c1OC(F)(F)O2
2. CC(F)(F)c1cccc([C@H]2CNC(=O)[C@@H]2C(=O)Nc2ccccc2S(C)(=O)=O)c1
3. CS(=O)(=O)c1ccccc1NC(=O)[C@H]1C(=O)NC[C@@H]1c1cc(F)c(C(F)(F)F)c(F)c1

[80, 90, 90]

====

tested on: giant foxtail (Setaria faberi); assay: Test G Pre-Emergence Protocol; format: in vivo; conditions: Setaria faberi, pre-emergence, 312 h, 62.5 g ai/ha, evaluated after 13 days, 100=total damage to plant, 0=no damage to plant, read-out: Foxtail, Giant damage rating
PROPERTY: pest or weed control at 62.5 g/ha (%)
Answers are plain numbers, in %.

{"columns": ["MOLECULE", "pest or weed control at 62.5 g/ha / %"],
 "data": [
  ["Cc1cc([C@H]2CN(C)C(=O)[C@@H]2C(=O)Nc2ccc(F)c(F)c2F)cnn1 (racemic)", 0]
]}

Record pest or weed control at 62.5 g/ha for all entries; do not skip any.
1. CCOc1ccc([C@@H]2CN(C)C(=O)[C@H]2C(=O)Nc2cccc(F)c2C)cc1Cl (racemic)
2. COc1cc(Cl)cc(C2CN(C)C(=O)C2C(=O)Nc2cccc(F)c2F)c1 (stereo not drawn)

[90, 80]

====

Assign Plant response rating, Pigweed to each entry below.
tested on: pigweed (Amaranthus retroflexus); test: Test A preemergence; type: in vivo; settings: 125 g ai/ha, Preemergence; visual injury after approximately 10 d; 0 to 100 scale where 0 is no effect and 100 is complete control
Excerpt: […]

Observe how each entry below is paired with its result.
{"columns": ["COMPOUND", "TARGET ENTITY", "Plant response rating, Pigweed"],
 "data": [
  ["O=C1NCC(c2cccc(C(F)(F)F)c2)C1C(=O)Nc1ccccc1O (centres unmarked) [Compound 557]", "pigweed (Amaranthus retroflexus)", 0],
  ["CN1CC(c2c(F)cccc2F)C(C(=O)Nc2cccc(F)c2F)C1=O (centres unmarked) [Compound 547]", "pigweed (Amaranthus retroflexus)", 0],
  ["CN1CC(c2cccc(OC(F)F)c2)C(C(=O)Nc2ccccc2F)C1=O (centres unmarked) [Compound 618]", "pigweed (Amaranthus retroflexus)", 50],
  ["Cc1ccc(C2CNC(=O)C2C(=O)Nc2cccc(F)c2F)cc1C(F)(F)F (centres unmarked) [Compound 642]", "pigweed (Amaranthus retroflexus)", 50],
  ["Cc1ccc(C2CN(C)C(=O)C2C(=O)Nc2cccc(F)c2F)cc1 (centres unmarked) [Compound 662]", "pigweed (Amaranthus retroflexus)", 70]
]}

I'm hoping you can list Plant response rating, Pigweed for every compound here, please.
1. O=C1NCC(c2cc(C(F)(F)F)ccc2F)C1C(=O)Nc1cccc(F)c1F (centres unmarked) [Compound 594]
2. CN1CC(c2ccc(Br)cc2)C(C(=O)Nc2ccccc2S(C)(=O)=O)C1=O (centres unmarked) [Compound 565]
3. CN1CC(c2cccc(C(F)(F)F)c2)C(C(=O)Nc2cccc(F)c2F)C1=O (centres unmarked) [Compound 636]

1: 0; 2: 70; 3: 40

====

tested on: ryegrass, Italian (Italian ryegrass, Lolium multiflorum); assay: Test A preemergence; assay type: in vivo; conditions: Lolium multiflorum, pre-emergence, 240 h, 125 g ai/ha, Preemergence, visual injury rating after approximately 10 d; read-out: Ryegrass, Italian plant response rating (0 to 100 scale, 0 is no effect, 100 is complete control)
PROPERTY: pest or weed control at 125 g/ha (%)
One number for each entry, in %.

Would you mind giving pest or weed control at 125 g/ha for every molecule in the list below?
1. CSc1ccccc1NC(=O)[C@H]1C(=O)NC[C@@H]1c1ccc(C(F)(F)F)cn1
2. Cc1ccc([C@H]2CNC(=O)[C@@H]2C(=O)Nc2ccccc2F)cc1C
3. CN1C[C@H](c2ccc(C(F)(F)F)cn2)[C@@H](C(=O)Nc2cccc(F)c2F)C1=O

[0, 0, 30]

Fill in pest or weed control at 125 g/ha for each of the 2 molecules listed.
1. COc1ccc([C@H]2CN(C)C(=O)[C@@H]2C(=O)Nc2ccccc2F)cc1C(F)(F)F
2. CN1C[C@H](c2csc(C(F)(F)F)c2)[C@@H](C(=O)Nc2ccccc2F)C1=O

1. 70
2. 0

====

system: velvetleaf (Abutilon theophrasti); experiment: Test G Pre-Emergence Protocol; type: in vivo; settings: Abutilon theophrasti, pre-emergence, 312 h, 15.625 g ai/ha, evaluated after 13 days, read-out: Velvetleaf damage rating (100=total damage to plant; 0=no damage to plant)
PROPERTY: pest or weed control at 15.625 g/ha (%)
Numbers only, in %.

{"columns": ["MOLECULE", "MEASURED RESULT"],
 "data": [
  ["Cc1cccc(NC(=O)[C@@H]2C(=O)N(C)C[C@H]2c2ccc(C(F)(F)F)cc2)c1[N+](=O)[O-] (racemic) [Compound 1636]", 0],
  ["COc1ccc(C2CN(C)C(=O)C2C(=O)Nc2cccc(F)c2F)cc1C (stereo not shown) [Compound 1688]", 10],
  ["C=Cc1cc(Oc2ccccc2)cc([C@@H]2CN(C)C(=O)[C@H]2C(=O)Nc2cccc(F)c2F)c1 (racemic) [Compound 1826]", 0]
]}

Let us examine a further case.
Report measured pest or weed control at 15.625 g/ha on velvetleaf (Abutilon theophrasti); entry: Cc1cc(C)cc([C@H]2CN(C)C(=O)[C@@H]2C(=O)Nc2ccccc2S(C)(=O)=O)c1 (racemic) [Compound 1727]
0

====

test system: corn (Zea mays); assay: Test A postemergence; assay type: in vivo; conditions: Zea mays, post-emergence, 240 h, 125 g ai/ha, postemergence, visual injury vs untreated controls after approx. 10 d; 0 = no effect, 100 = complete control; read-out: Corn plant response rating (0 to 100 scale)
PROPERTY: plant injury at 125 g/ha (%)
Give bare numbers, in %.

Observe how each entry below is paired with its result.
{"columns": ["COMPOUND", "plant injury at 125 g/ha / %"],
 "data": [
  ["CN1C[C@H](c2ccc(F)c(C#N)c2)[C@@H](C(=O)Nc2ccccc2F)C1=O [Compound 1254]", 20],
  ["CCc1ccc([C@H]2CNC(=O)[C@@H]2C(=O)Nc2cccc(F)c2C)cc1 [Compound 1177]", 20]
]}

Turning now to a further record.
For CCc1cc([C@H]2CN(C)C(=O)[C@@H]2C(=O)Nc2ccccc2F)cs1 [Compound 1156] , write its plant injury at 125 g/ha.
20

Value source: patent US12077503B2
